tested on: 997537-175-T-J1-PDC complex spheroid viability; experiment: Anticancer human tumor 997537-175-T-J1-PDC patient-derived colon adenocarcinoma cell line growth inhibition [GQUAD]; conditions: curve of first compound; second compound 1 µM;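 further: spheroids exposed to the agents for 7 days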
pIC50: −log10 of the molar value.
attribute-measured: pIC50

CC(C)n1c(=O)n(C)c2cnc3cc(F)c(-c4ccc(OCCCN5CCCCC5)nc4)cc3c21 + Cc1[nH]c2ccc(F)cc2c1-c1nc2c3cccnc3c3ncccc3c2[nH]1; < 5.00
Cn1ncnc1[C@H]1c2n[nH]c(=O)c3cc(F)cc(c23)N[C@@H]1c1ccc(F)cc1 + Cc1[nH]c2ccc(F)cc2c1-c1nc2c3cccnc3c3ncccc3c2[nH]1; < 6.50
CC1COCCN1c1cc(C2(S(C)(=N)=O)CC2)nc(-c2ccnc3[nH]ccc23)n1 (centres undefined) + Cc1cnc(CNC(=O)c2c(=O)c3ccc(N4CCCN(C)CC4)nc3n3c2sc2ccccc23)cn1; < 5.00
Cc1cccc(N(C)C(=O)C2C(O)CCN2c2nc(C)cc(C(F)(F)F)c2C#N)c1 (centres undefined) + Cc1[nH]c2ccc(F)cc2c1-c1nc2c3cccnc3c3ncccc3c2[nH]1; < 5.00
Nc1ccn(C2OC(CO)C(O)C2(F)F)c(=O)n1 (centres undefined) + Cc1[nH]c2ccc(F)cc2c1-c1nc2c3cccnc3c3ncccc3c2[nH]1; < 5.00

INPUT: Determine its reported pIC50: C=CCn1c(=O)c2cnc(Nc3ccc(N4CCN(C)CC4)cc3)nc2n1-c1cccc(C(C)(C)O)n1 + Cc1[nH]c2ccc(F)cc2c1-c1nc2c3cccnc3c3ncccc3c2[nH]1
OUTPUT: 5.26

INPUT: Give the reported value of pIC50 for this record: O=c1[nH]cc(F)c(=O)[nH]1 + Cc1cnc(CNC(=O)c2c(=O)c3ccc(N4CCCN(C)CC4)nc3n3c2sc2ccccc23)cn1
OUTPUT: < 5.00

INPUT: Determine its reported pIC50: Cc1[nH]c2ccccc2c1CCNCc1ccc(/C=C/C(=O)NO)cc1 + Cc1cnc(CNC(=O)c2c(=O)c3ccc(N4CCCN(C)CC4)nc3n3c2sc2ccccc23)cn1
OUTPUT: < 6.50

INPUT: Using the record for Cn1ncnc1[C@H]1c2n[nH]c(=O)c3cc(F)cc(c23)N[C@@H]1c1ccc(F)cc1 + CN(C)c1ccc(Nc2c3ccc(NC(=O)CCN4CCCC4)cc3nc3cc(NC(=O)CCN4CCCC4)ccc23)cc1 , state its measured pIC50.
OUTPUT: < 6.50

INPUT: Output measured pIC50 for this item: CC(C)(O)C1CCC(Nc2ccc3ncc(-c4cccc(C(F)(F)F)c4)n3n2)CC1 (centres undefined) + CN(C)c1ccc(Nc2c3ccc(NC(=O)CCN4CCCC4)cc3nc3cc(NC(=O)CCN4CCCC4)ccc23)cc1
OUTPUT: 5.65

Reference source for all entries: PubChem BioAssay AID2060487
